Values from PubChem BioAssay (NCI)

Please respond with reported growth for every item in the list.
system: A498 renal; assay: NCI-60 one-dose screen, 48 h (100 = growth as untreated, 0 = no growth, -100 = all killed); details: 10 µM unless noted
The panel holds about 83,000 compounds, 20% with a hit somewhere; the sample as a whole holds those more often. The source made the active and inactive calls. How the source made its calls: active means growth percent below 10; inactive means the rest.

Tell me growth reported for `O=C1NC(=O)/C(=C/C=C/c2ccccc2)S1`
69.7% (inactive)

Consider the molecule `O=C1c2ccccc2C(=O)N1c1ccccc1` . State its measured growth.
109% (inactive)

Look up growth of `O=[N+]([O-])c1ccc2c(N=Nc3ccc4ccccc4c3O)c(O)cc(S(=O)(=O)O)c2c1` and report it.
108% (inactive)

Respond only with growth recorded for CN1c2ccccc2C(C)(C)C12C=Cc1cc(O)ccc1O2 (centres undefined)
26% (inactive)

* * *

test system: SK-MEL-28 melanoma; assay: NCI-60 one-dose screen, 48 h; details: 10 µM unless noted
About 83,000 compounds went through this panel and 20% of them were active in at least one assay; those are over-represented in the sample as a whole. Calls of active or inactive are those of the source. The calls were made as follows: active = growth percent below 10; inactive = the rest.
// one of True (active), False (inactive), no free text

What classification did `CCCCCCCCCCCCCCNCc1ccccc1` end up with in this test?
False

I would be grateful if you could indicate the recorded call for `N[C@H](C(=O)O)[C@@H]1CC(Cl)=NO1` .
False

Hey, what did the test say about `CC1(C)CC([P+](c2ccccc2)(c2ccccc2)c2ccccc2)=NN1` ?
False

I'd appreciate the recorded outcome for `CC(=O)C(=Cc1ccc(C=C(C(C)=O)C(C)=O)cc1)C(C)=O` from this test.
True

Recorded test call requested for `CCC(CC)COC(=O)c1ccc(O)c(O)c1`
False

Record lookup: outcome of this test for `NC(=O)/C=C/C(=O)c1c(Cl)cccc1Cl` ?
True

Per the assay record, what outcome was assigned to `CCC(=O)Sc1ccccc1C(=O)Nc1ccc(Cl)cc1` ?
False

What did this assay record as the result for CN(Cc1cnc2nc(N)nc(N)c2n1)c1ccc(C(=O)NC(CCC(=O)O)C(=O)O)cc1 (configuration not stated) ?
False

Hey, what did the test say about `Oc1c(Cl)c2ccccc2c2ccccc12` ?
False

Look up the recorded call for `O=C1C=CC(=O)N1C1c2ccccc2-c2ccccc21` in this test.
False

Name the outcome recorded for O=C1C2=C(Nc3cc([N+](=O)[O-])ccc3N2)OC1c1c2ccccc2cc2ccccc12 (configuration not stated) in the assay.
False

GET /call?item= `CC(=Nc1ccc(N(C)C)cc1)c1ccccc1` returns the recorded outcome of this test.
False

* * *

tested on: NCI-H226 lung; assay: NCI-60 one-dose screen, 48 h; conditions: 10 µM unless noted
About 83,000 compounds went through this panel and 20% of them were active in at least one assay; those are over-represented in the sample as a whole. Calls of active or inactive are those of the source. The calls were made as follows: active = growth percent below 10; inactive = the rest.
Bench note: report the call from active, inactive

Call for entry `CC(C)(C)c1ccc(O)c(C2CCCCC2)c1` :
inactive

What was the test verdict on `COC(=O)c1nc(=S)[nH]c(C(=O)OC)c1C(=O)c1ccccn1` ?
active

Per the records of this test, what outcome belongs to `CN(C)C(=O)SC1=C(c2c(Cl)cccc2Cl)C(=O)c2ccccc21` ?
inactive

How did this test come out for `C/C=C1\SC(=S)NC1=O` ?
inactive

Call for entry `CC1(C)CC([P+](c2ccccc2)(c2ccccc2)c2ccccc2)=NN1` :
inactive

Recorded test outcome, item `COc1ccc(N=N/N=c2\sc3cc(OC)ccc3n2C)cc1`
inactive
